Test: soluble on expression in E. coli; label from the status in PepcDB or PDB records
experimental_endpoint: soluble on expression in E. coli

{"sequence_string": "MLLGYCGSGYYGMQYNPPHKTIEGEILTKLFDVGAISEENSLAPKKNSFMAAARTDKGVHAMLNLLSLKITLREDTVAKLNAALPPEIRVWGIQPVNKKFNARSACDSRWYQYLIPEFILIGPPRSSLLHRNVGGCYREDGSQEVWDTFLEQTRGRFSGDELCRLQDTAQKLSESDPLVQDYVGLLSGTLSGYCLSPSKLDAFEAAMQEYVGTHNFHNFTTGKLWGDPSAQRHIKKVVVSQASPGWICVRIHGQSFMLHQIRRMVALAVLAARCQLPPNIVRNYFNAGPRKYIPRAPAQGLLLEGPVFDGYNTKLRNLLYCEIRPDDITLERMCRFRERQICTAIAHEETQRHVFCHFVRQMNRLATPLI", "value_reported": "not soluble"}
{"sequence_string": "GPGSMGCGDSKVRQGGPSRPPPPRGGPNSASTKVEGRANGPNEETSRVESKGSAPPEPEVNSTPVPTKPLGNGVDNSGAEKTNAPPTGSAPPAQNCSQQIELDDEGNALVLPKGEWVRTEGTPFYYSDAENLYFHPPSCQFYDPTNEMWYDPEQDEWYRDDDPAE", "value_reported": "not soluble"}

----------
Assay: soluble on expression in E. coli; label from the status in PepcDB or PDB records
experimental_endpoint: soluble on expression in E. coli

{"sequence_string": "AHHHHHHGSKILWAPWRIEYIRAPKHEGCIFCDFPRENRDRERLILYRGKHAFIIMNNYPYNPGHVMVAPYRHVASVEDLTDEEMLEIMKLAALIMKAIRKVMKPDGFNLGFNIGKVAGAGVDGHVHLHIVPRWNGDTNFMPVIADTKVIPESLEQAYEELKKALEEIENAE", "value_reported": "soluble"}
{"sequence_string": "MSDVIFLRQYDDIDIVSSPSQNNIIFGHEAARHFLAQILKEERLPHAILFEGDYGIGKATLAFHLAWNILSSQKDGFKQPEHNSVIWRQITQGSHPGLLHISRRFDVKTQKFKTGILFDDIRDIIHFLNRTSKDSGWRIVIIDPADDMNRNAANAILKTLEEPPAKTLFIIITHFSGKLLPTIRSRCQQISLRPLHNDEMKKIIIHMFSNQNVIDEENIGMIIQKSNGNPRKAALLIHGGFEIIKTIDTLLGQSVCNPTIVHNLAQTLSSLSSVIQFQQFCDEILDKIQKKAIMLAERGNLALSKKCAQAWQEIHQEIGEIQSFNLDKKQFIINLLFRVHKIICESELFP", "value_reported": "not soluble"}
{"sequence_string": "SQACVMPSLLQNMVGFSEVARATQTDPRPQRPAPPQPQVATMPWSQPGSWARRGFVPAWSQPPALSQQKLARQCCLGPWAGLIPHQQPLPRHPPQASSFPTTAGLWPPAFAQCGTLGHRAIYLVLWPPFLGPWLSSLQEKPHFIPQLPPACTPHPVPWWGLSIPGSKGRRSAPFLPLSLGRLGAQLWKHHPATHLSCGSRFFGGS", "value_reported": "soluble"}
{"sequence_string": "MGSDKIHHHHHHMSDVIEQYFVKNEPYYRPVADEVKLYEAAYSVRMPMMLKGPTGCGKTRFVEYMAWKLGKPLITVACNEDMTASDLVGRFLLDAQGTRWQDGPLTTAARYGAICYLDEVVEARQDTTVVIHPLTDNRRVLPLEKKGELVGAHPDFQLVISYNPGYQSLMKDLKQSTKQRFGALDFNYPQHDIETEIVSHETGIDSAIADKLVSIAERARNLKGHGLDEGISTRMLIYAGNLIAKGVDVHAACRMALVRPITDDPDMRDALDAAVTTFF", "value_reported": "not soluble"}
{"sequence_string": "GSMTDGDYDYLIKLLALGDSGVGKTTFLYRYTDNKFNPKFITTVGIDFREKRVVYDTQGADGASGKAFKVHLQLWDTAGLERFRSLTTAFFRDAMGFLLMFDLTSQQSFLNVRNWMSQLQANAYCENPDIVLIGNKADLPDQREVNERQARELAEKYGIPYFETSAATGQNVEKSVETLLDLIMKRMEKCVEKTQVPDTVNGGNSGKLDGEKPAEKKCAC", "value_reported": "soluble"}

Record request: soluble on expression in E. coli value, item AMAISDPEETLMDSTTATAELGWMVHPPSGWEEVSGYDENMNTIRTYQVCNVFESSQNNWLRTKFIRRRGAHRIHVEMKFSVRDCSSIPSVPGSCKETFNLYYYEADFDLATKTFPNWMENPWVKVDTIAADESISQVDLGGRVMKINTEVRSFGPVSRNGFYLAFQDYGGCMSLIAVRVFYRKCPR soluble

----------
Experiment: soluble on expression in E. coli; label from the status in PepcDB or PDB records
experimental_endpoint: soluble on expression in E. coli

{"sequence_string": "MSLTKLYYEDQYIKEFKGEIIEVKEIDGKFHVLLDQTAFFPGGGGQMGDLGLIDGIKVLDVYEEEGKVYHVLEKEPKKLKNLQCELDWERRFDGMQQHLGQHLLSGCFYDLFGANTCGFHLGKEISTVDIVGFLDEKTIREAEKEANRLIFENLEVKSYAPSKKELKKVKTRRALPKTDEEIRIVEIVGLDLNACCGVHPRNTRDLQVIKIRRWEKHKNATRIEYVAGNRAVSEGHHHHHH", "value_reported": "soluble"}
{"sequence_string": "MSLHGEKAPFPLTLIHINDLHARFDETNQKSSTCTNSKECIAGIARVYHTIKQLKSEYKTKNPLYLNAGDNFQGTLWYNLLRWNVTAYFIKELPPDAMTLGNHEFDHSPKGLAPYLAELEKMKIPTVVANLEKNGEPALKDSKIARSIVLKVGNRKVGVIGALYDKTHLVAQTGMVTLTNSIEAVRKEAQELKKKNVNIIVVLSHCGLDGDKQLAEEAGDLIDVIVGAHSHSLLLNKDAKVPYDTKYDTIEGDYPLVVKKSNNHTVLITQARSFGKYVGRLTVNFDCEGEVQSWEGYPIYMNNSVKEGHHHHHH", "value_reported": "soluble"}
{"sequence_string": "MSLSPVPPPLVRVAPSLFLGSARAAGAEEQLARAGVTLCVNVSRQQPGPRAPGVAELRVPVFDDPAEDLLAHLEPTCAAMEAAVRAGGACLVYCKNGRSRSAAVCTAYLMRHRGLSLAKAFQVGGPLGGRCFERGVSSGDEFSGRGRLRDWDRHFREGRVSLMVKSARPVAEPNPGFWSQLQKYEEALQAQSEGHHHHHH", "value_reported": "not soluble"}
{"sequence_string": "MFDAKKLEQIAKQIHEAMPQPVKELGADVEQKVRQVIQGQLNKLDVVSREEFDVQTQVLLRTRQKLTELEQKMAELEAKLADK", "value_reported": "not soluble"}

----------
Experiment: soluble on expression in E. coli; label from the status in PepcDB or PDB records

{"sequence_string": "MGSDKIHHHHHHMETSEILKKVRQIEIKTRGLSNNIFAGQYHSAFKGRGMSFSEVREYQFGDDIRDIDWNVTARFNKPYVKVFEEERELTVMLMVDVSGSLEFGTVKQLKKDMVTEIAATLAFSAIQNNDKIGVIFFSDRIEKFIPPKKGRKHILYIIRELIDFQPESRRTNIRLALEYLTNVMKRRCTAFILSDFIDQDNFKNALTIANRKHDVVALQVYDRRVSDLPPVGLMRIKDAETGHEQWIDTSSKAVRRAHRDWWINKQTELNDTFTKSNVDSVSVRTDQDYVKALLNLFAKRN", "soluble on expression in E. coli": "not soluble"}
{"sequence_string": "MLTEDDIKEIRENREMIEQGRREPVTLYIKGVSEKDPITGEEIQGEPRKENVQLVWKKFTSVEKTKFADLDVKKGEALVTFPLNVDLENIEKIERKGVFYVIELIDERGLGGVNRREVIVKRVI", "soluble on expression in E. coli": "not soluble"}

----------
Test: soluble on expression in E. coli; label from the status in PepcDB or PDB records

{"sequence_string": "MVRIRWFFIRHAESEANVVERWRIAGRSEAARLTERGERQARVVGEAVAIRLEQVLRVDGGDAGGVSGDAGRRRVLAPVAFTSPLLRARQTAALVLEQVAQPVKLEPVDDLAEVYQGLWEDALRSEVHTPETLQAMARNPYEFRAPGGEAQADVERRVLRAVSRMSQRVLSLLSLELEENEQTDVIVLVFTHGYVCKCLIRSVLDASPHLTGQIQVDNGALVELWLEPAAQQGALTSAAELGMWTVLRINDTWGQLTASMR", "soluble on expression in E. coli": "not soluble"}
{"sequence_string": "QVKEVQIRFEKDALHNIMEMQYKNYQLSKENIDMVNQKYHDLKHQINILKTQSYTGKSTNYLEKMEREIRVYETQNKTGNQILDAVLTNKAMICQNKEIELKFIVDGEALSFMDDMDVSALFGNMLDNAIESAEKQQEKQKRLIWLYVTREKQFVRIRTENYCDEKIHFKNGMPVTTKKDRRLHGYGMKSIKSTVEKYHGSVVAAQENNWFELKILLPAGR", "soluble on expression in E. coli": "not soluble"}
